# test protocol: Cytotoxicity against human MT4 cells assessed as cell viability at 1250 nM after 7 days by MTT assay relative to control
# Assay type: cell-based
# condition set: read-out: Activity
Examples of compounds with documented viability at 168 h, 1.25 µM follow.

                                   compound               assay_endpoint  result_value
0  CCOP(=O)(CC)Cc1cccc(Nc2cc(-c3ccccc3OCc3ccccc3)ncn2)c1 (stereo not drawn)  viability at 168 h, 1.25 µM           98%
1  CCP(=O)(O)Cc1cccc(Nc2cc(-c3ccccc3OCc3ccccc3)ncn2)c1  viability at 168 h, 1.25 µM          110%
2  CCCP(=O)(Cc1cccc(Nc2cc(-c3ccccc3OC)ncn2)c1)OCC (stereo not drawn)  viability at 168 h, 1.25 µM           66%
3  CCCP(=O)(Cc1cccc(Nc2cc(-c3ccccc3OCc3ccccc3)ncn2)c1)OCC (stereo not drawn)  viability at 168 h, 1.25 µM           86%
4  COc1ccccc1-c1cc(Nc2cccc(P(=O)(O)O)c2)ncn1  viability at 168 h, 1.25 µM           90%

Need viability at 168 h, 1.25 µM, item CCCP(=O)(O)Cc1cccc(Nc2cc(-c3ccccc3OCc3ccccc3)ncn2)c1
158%

Need viability at 168 h, 1.25 µM, item CCOP(=O)(Cc1cccc(Nc2cc(-c3ccccc3OC)ncn2)c1)OCC
91%

Need viability at 168 h, 1.25 µM, item CCOP(=O)(CC)Cc1cccc(Nc2cc(-c3ccccc3OC)ncn2)c1 (stereo not drawn)
94%

* * *

# assay target: Cyclin-dependent kinase 4/cyclin D1 (Homo sapiens) (UniProt P11802+P24385)
# test protocol: Inhibition of CDK4/CycD1 (unknown origin) using FAM labeled peptide as substrate at 10 uM by IMAP FAM FP assay
# Assay type: protein-complex assay
assay endpoint: inhibition
# output: number + unit

>>> df
                                   compound                              assay_target  assay_endpoint  result_value
0  CCOP(=O)(OCC)C(O)c1ccc(Nc2cc(-c3ccccc3OC)ncn2)cc1 (stereo not given)  Cyclin-dependent kinase 4/cyclin D1 (Homo sapiens) (UniProt P11802+P24385)      inhibition           68%
1  CCOP(=O)(OCC)c1ccc(Nc2cc(-c3cccc(N)c3)ncn2)cc1  Cyclin-dependent kinase 4/cyclin D1 (Homo sapiens) (UniProt P11802+P24385)      inhibition           35%

Need inhibition, item CCOP(=O)(OCC)c1ccc(Nc2cc(-c3ccccc3OC)ncn2)cc1
22%

Need inhibition, item CCOP(=O)(Cc1ccc(Nc2cc(-c3cccc(N)c3)ncn2)cc1)OCC
30%

Need inhibition, item CCOP(=O)(Cc1ccc(Nc2cc(-c3ccccc3OC)ncn2)cc1)OCC
51%

* * *

# assay target: CDK9/cyclin T1 (Homo sapiens, UniProt P50750)
# Sequence (O60563 whole entry): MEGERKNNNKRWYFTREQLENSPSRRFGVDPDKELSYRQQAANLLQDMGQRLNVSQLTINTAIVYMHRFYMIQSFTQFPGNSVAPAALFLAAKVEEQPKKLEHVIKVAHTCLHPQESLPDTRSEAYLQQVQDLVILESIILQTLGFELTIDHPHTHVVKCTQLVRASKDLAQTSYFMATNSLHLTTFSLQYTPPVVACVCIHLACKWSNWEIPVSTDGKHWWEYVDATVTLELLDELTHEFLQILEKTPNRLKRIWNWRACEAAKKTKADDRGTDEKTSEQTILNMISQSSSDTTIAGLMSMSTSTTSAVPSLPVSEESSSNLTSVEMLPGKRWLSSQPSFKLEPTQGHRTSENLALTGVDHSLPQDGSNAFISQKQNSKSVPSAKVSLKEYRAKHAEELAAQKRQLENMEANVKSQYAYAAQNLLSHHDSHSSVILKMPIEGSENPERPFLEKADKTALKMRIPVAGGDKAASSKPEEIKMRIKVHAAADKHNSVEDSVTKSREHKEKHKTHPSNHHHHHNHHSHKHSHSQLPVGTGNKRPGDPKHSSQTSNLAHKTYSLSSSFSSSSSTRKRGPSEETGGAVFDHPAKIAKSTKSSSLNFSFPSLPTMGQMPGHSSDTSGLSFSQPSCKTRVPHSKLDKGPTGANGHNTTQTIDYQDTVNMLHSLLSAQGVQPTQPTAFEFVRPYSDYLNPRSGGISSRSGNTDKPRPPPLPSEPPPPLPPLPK
# Sequence (P50750 whole entry): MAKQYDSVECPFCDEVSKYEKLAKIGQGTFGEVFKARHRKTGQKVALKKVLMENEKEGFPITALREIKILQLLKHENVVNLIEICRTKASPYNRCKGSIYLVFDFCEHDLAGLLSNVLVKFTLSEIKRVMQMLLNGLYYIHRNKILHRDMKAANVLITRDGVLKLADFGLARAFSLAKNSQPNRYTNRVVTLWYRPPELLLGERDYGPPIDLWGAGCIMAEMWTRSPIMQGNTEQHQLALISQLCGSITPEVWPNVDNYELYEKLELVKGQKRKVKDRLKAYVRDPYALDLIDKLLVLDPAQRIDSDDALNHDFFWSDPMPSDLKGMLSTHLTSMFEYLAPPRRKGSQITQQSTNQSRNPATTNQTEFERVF
# test protocol: Inhibition of CDK9/CycT1 (unknown origin) using TAMRA-Rbtide and ATP as substrate after 1 hr
# Format: protein-complex assay
Examples of molecules with documented log10 IC50 follow.
Note the log scale: values are log10 of IC50 expressed in µM.

Field: example entries. Status: answers known.
In [3]: df
Out[3]:
                                   molecule  assay_endpoint  result_value
0  CCOP(=O)(OCC)c1cccc(Nc2cc(-c3ccccc3OC)ncn2)c1      log10 IC50          0.02
1  CCOP(=O)(CC)c1cccc(Nc2cc(-c3ccccc3OC)ncn2)c1 (stereo not given)      log10 IC50         -0.07
2  CCOP(=O)(Nc1cc(Nc2cc(-c3ccccc3OC)ncn2)ccc1C)c1ccccc1 (stereo not given)      log10 IC50          0.72
3  CCCP(=O)(Cc1ccc(Nc2cc(-c3cccc([N+](=O)[O-])c3)ncn2)cc1)OCC (stereo not given)      log10 IC50          0.74
4  COc1ccccc1-c1cc(Nc2cccc(P(=O)(O)O)c2)ncn1      log10 IC50         -0.37

// next entry
Notebook entry, CDK9/cyclin T1 (Homo sapiens, UniProt P50750) assay: log10 IC50 of CCOP(=O)(OCC)C(O)c1ccc(Nc2cc(-c3ccccc3OC)ncn2)cc1 (stereo not given) = ?
-0.29

* * *

Examples of molecules with documented IC50 follow.
# assay target: CDK9/cyclin T1 (Homo sapiens, UniProt P50750)
# test protocol: Inhibition of CDK9/CycT1 (unknown origin) using TAMRA-Rbtide and ATP as substrate after 1 hr
# Format: protein-complex assay
Number in nM, nothing else.

Field: example entries. Status: answers known.
                                   molecule                              assay_target  result_value
0  CCOP(=O)(CC)Cc1ccc(Nc2cc(-c3cccc(N)c3)ncn2)cc1 (stereo not given)  CDK9/cyclin T1 (Homo sapiens, UniProt P50750)          7530
1  CCOP(=O)(CC)Cc1cc(Nc2cc(-c3cccc([N+](=O)[O-])c3)ncn2)ccc1C (stereo not given)  CDK9/cyclin T1 (Homo sapiens, UniProt P50750)          7020
2  CCCP(=O)(Cc1cccc(Nc2cc(-c3ccccc3OC)ncn2)c1)OCC (stereo not given)  CDK9/cyclin T1 (Homo sapiens, UniProt P50750)           296
3  CCOP(=O)(CC)Cc1ccc(Nc2cc(-c3cccc([N+](=O)[O-])c3)ncn2)cc1 (stereo not given)  CDK9/cyclin T1 (Homo sapiens, UniProt P50750)          7770
4  CCOP(=O)(Cc1ccc(Nc2cc(-c3ccccc3OC)ncn2)cc1)OCC  CDK9/cyclin T1 (Homo sapiens, UniProt P50750)           490
5  CCCP(=O)(Cc1cccc(Nc2cc(-c3ccccc3OCc3ccccc3)ncn2)c1)OCC (stereo not given)  CDK9/cyclin T1 (Homo sapiens, UniProt P50750)           143

Notebook entry, CDK9/cyclin T1 (Homo sapiens, UniProt P50750) assay: IC50 of CCCP(=O)(Cc1cccc(Nc2cc(-c3cccc([N+](=O)[O-])c3)ncn2)c1)OCC (stereo not given) = ?
8060

Notebook entry, CDK9/cyclin T1 (Homo sapiens, UniProt P50750) assay: IC50 of CCOP(=O)(OCC)C(O)c1cccc(Nc2cc(-c3cccc(N)c3)ncn2)c1 (stereo not given) = ?
1400

Notebook entry, CDK9/cyclin T1 (Homo sapiens, UniProt P50750) assay: IC50 of CCOP(=O)(Cc1cccc(Nc2cc(-c3cccc(N)c3)ncn2)c1)OCC = ?
332

* * *

# test protocol: Cytotoxicity against human MT4 cells assessed as cell viability at 2500 nM after 7 days by MTT assay relative to control
# Format: cell-based
# condition set: read-out: Activity
assay endpoint: viability at 168 h, 2.5 µM (%)
Number in %, nothing else.

Field: example entries. Status: answers known.
>>> df
                                   compound  unit_annotation  result_value
0  CCP(=O)(O)Cc1cccc(Nc2cc(-c3ccccc3OCc3ccccc3)ncn2)c1                %           104
1  CCCP(=O)(Cc1cccc(Nc2cc(-c3ccccc3OC)ncn2)c1)OCC (stereo not drawn)                %            81
2  CCOP(=O)(CC)Cc1cccc(Nc2cc(-c3ccccc3OCc3ccccc3)ncn2)c1 (stereo not drawn)                %            94

Need viability at 168 h, 2.5 µM, item CCOP(=O)(Cc1cccc(Nc2cc(-c3ccccc3OC)ncn2)c1)OCC
100

Need viability at 168 h, 2.5 µM, item CCCP(=O)(Cc1cccc(Nc2cc(-c3ccccc3OCc3ccccc3)ncn2)c1)OCC (stereo not drawn)
93

Need viability at 168 h, 2.5 µM, item CCCP(=O)(O)Cc1cccc(Nc2cc(-c3ccccc3OCc3ccccc3)ncn2)c1
141

Need viability at 168 h, 2.5 µM, item COc1ccccc1-c1cc(Nc2cccc(P(=O)(O)O)c2)ncn1
90

Need viability at 168 h, 2.5 µM, item CCOP(=O)(CC)Cc1cccc(Nc2cc(-c3ccccc3OC)ncn2)c1 (stereo not drawn)
94

* * *

# assay target: CDK9/cyclin T1 (Homo sapiens)
# test protocol: Inhibition of CDK9/CycT1 (unknown origin) using TAMRA-Rbtide and ATP as substrate after 1 hr
# Type: protein-complex assay
Rule for this label: T means IC50 is less than 500 nM; F means IC50 is at least 500 nM.

>>> print(df.to_string())
                                   compound  label_value
0  CCCP(=O)(Cc1cccc(Nc2cc(-c3ccccc3CC)ncn2)c1)OCC (stereo not given)            F

Is 500 nM strictly greater than the compound's reported IC50? compound: CCOP(=O)(Cc1cccc(Nc2cc(-c3ccccc3OC)ncn2)c1)OCC
T

Is 500 nM strictly greater than the compound's reported IC50? compound: CCCP(=O)(Cc1cccc(Nc2cc(-c3ccc(F)cc3OC)ncn2)c1)OCC (stereo not given)
T

All values here come from ChEMBL document CHEMBL3259517.
